# experimental details: in vivo
# condition description: female, NIH-III nude, mouse, plasma, ip, 186 mg/kg, T1/2, administered 16hr after SN30000 186 mg/kg i.p.
measurement type: half-life (min)
Enter your answer as a number in min; do not include the unit.

Query string: # lookup: half-life of OC[C@@H](O)[C@@H](O)[C@H](O)[C@H](O)CO
Result string: 23.2

* * *

# experimental details: Redox cycling: non-respiratory O2 consumption and H2O2 generation
# Assay type: cell-based
# condition description: Chinese hamster; CHO/POR cells, 600 µM single bolus; read-out: Cell viability by trypan blue at end of exposure
measurement type: viability at 600 µM

Query string: // lookup viability at 600 µM for [O-][n+]1nc(CCCN2CCOCC2)[n+]([O-])c2cc3c(cc21)CCC3
Result string: > 97%

Data provenance is paper PMC5554537.
